Test system: Streptococcus pyogenes
Experiment: Inhibition of Streptococcus pyogenes IdeS assessed as blockade of enzyme-mediated degradation of human polyclonal immunoglobulin G by SDS-PAGE method
The source made the active and inactive calls. No cut-off for these calls is given here.
Hi there, use one of these labels in your reply, thanks! y for active, n for inactive

                           substance_smiles  assigned_category
0  Cc1ccc(S(=O)(=O)N[C@H](CO)CCCCNC(=O)OC(C)(C)C)cc1                  n
1       Cc1ccc(S(=O)(=O)N[C@H](CO)CCCCN)cc1                  n
2  Cc1ccc(S(=O)(=O)N[C@@H](CCCCNC(=O)OC(C)(C)C)COS(=O)(=O)c2ccc(C)cc2)cc1                  n
3  Cc1ccc(S(=O)(=O)N[C@@H](CCCCN)C(=O)CCl)cc1                  y

Would you kindly look at the next entry?
Could you kindly confirm the outcome this assay logged for `Cc1ccc(S(=O)(=O)N[C@@H](CCCCNC(=O)OC(C)(C)C)CN=[N+]=[N-])cc1` ?
n
